- assayed-target: Human recombinant MMP-1 (Homo sapiens)
- Construct: made in house; host or cells: MMP-1-transfected HT-1080 cells (spent media)
- Sequence (P03956 100-469): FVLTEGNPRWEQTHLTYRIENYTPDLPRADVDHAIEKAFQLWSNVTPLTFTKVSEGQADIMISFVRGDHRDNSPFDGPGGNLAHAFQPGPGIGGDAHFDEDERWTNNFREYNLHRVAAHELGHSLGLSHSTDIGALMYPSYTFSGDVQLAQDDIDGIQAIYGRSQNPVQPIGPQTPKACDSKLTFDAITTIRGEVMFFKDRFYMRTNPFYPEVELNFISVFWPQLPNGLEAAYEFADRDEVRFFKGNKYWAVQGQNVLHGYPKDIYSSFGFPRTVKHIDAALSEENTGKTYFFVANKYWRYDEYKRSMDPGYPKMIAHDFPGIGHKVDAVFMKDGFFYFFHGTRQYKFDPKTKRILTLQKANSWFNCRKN
- protocol-text: In vitro MMP inhibition, IC50 determination (fluorogenic substrate I)
- Assay type: biochemical
- test-context: value outside parentheses (Ki in parenthesis)
endpoint-label: IC50

The following molecules have reported results that may help.
O=C(CCCOc1ccc(S(=O)(=O)C2(C(=O)NO)CCOCC2)cc1)c1ccc(-c2ccccc2)cc1    > 10 µM
O=C(CCCOc1ccc(S(=O)(=O)C2(C(=O)NO)CCOCC2)cc1)Nc1ccccc1O    3.28 µM

Given CN(C)c1ccc(C(=O)CCCOc2ccc(S(=O)(=O)C3(C(=O)NO)CCOCC3)cc2)cc1 , respond with its IC50.
> 10 µM

Identify measured IC50 associated with O=C1c2cc(Cl)c(Cl)cc2C(=O)N1CCCOc1ccc(S(=O)(=O)C2(C(=O)NO)CCOCC2)cc1
> 10 µM

Look up IC50 of CCCCCN(C)c1ccc(S(=O)(=O)C2(C(=O)NO)CCOCC2)cc1 and report it.
> 10 µM

###

- assayed-target: Human recombinant MMP-2 (Homo sapiens)
- Construct: made in house; host or cells: MMP-2-transfected p2AHT2 cells
- Sequence (P08253 110-660): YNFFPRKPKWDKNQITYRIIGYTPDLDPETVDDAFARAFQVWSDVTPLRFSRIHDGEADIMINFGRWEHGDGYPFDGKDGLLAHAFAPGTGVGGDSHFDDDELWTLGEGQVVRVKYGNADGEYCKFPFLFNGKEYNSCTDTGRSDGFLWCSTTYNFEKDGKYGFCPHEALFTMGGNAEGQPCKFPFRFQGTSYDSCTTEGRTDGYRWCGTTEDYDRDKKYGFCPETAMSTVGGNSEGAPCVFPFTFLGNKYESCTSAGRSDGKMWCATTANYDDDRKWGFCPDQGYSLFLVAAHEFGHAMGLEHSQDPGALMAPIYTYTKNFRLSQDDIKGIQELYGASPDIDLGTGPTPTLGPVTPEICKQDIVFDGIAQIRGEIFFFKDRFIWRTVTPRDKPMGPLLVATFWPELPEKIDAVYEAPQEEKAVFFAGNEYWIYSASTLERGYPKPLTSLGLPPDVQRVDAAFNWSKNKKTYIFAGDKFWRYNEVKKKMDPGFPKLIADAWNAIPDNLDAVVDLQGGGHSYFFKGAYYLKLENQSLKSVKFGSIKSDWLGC
- protocol-text: In vitro MMP inhibition, Ki determination (fluorogenic substrate II)
- Format: biochemical
- test-context: value in parenthesis
pKi: −log10 of the molar value.
Grouping key: pKi. Bins: low bin = under 6, mid bin = from 6 up to 7, high bin = 7 and over

Which class does COCCN1CCC(C(=O)NO)(S(=O)(=O)c2ccc(OCCCc3nc(-c4cccc5ccccc45)no3)cc2)CC1 [Example 199] fall in?
mid bin

Which of the defined bands does the recorded pKi of Cc1cc(-c2cccc(CCOc3ccc(S(=O)(=O)C4(C(=O)NO)CCOCC4)cc3)c2)ccc1Cl [Example 118] sit within?
low bin

Consider Cc1ccc(-c2cccc(CCOc3ccc(S(=O)(=O)C4(C(=O)NO)CCOCC4)cc3)c2)cc1C [Example 117] . To which pKi class does it belong?
low bin

Hey, which category is O=C(NO)C1(S(=O)(=O)c2ccc(OCCCc3cccc(-c4ccco4)c3)cc2)CCOCC1 [Example 97] in, do you know?
mid bin

Form field 'band' for COc1ccc(/C(C#N)=C/CCCOc2ccc(S(=O)(=O)C3(C(=O)NO)CCN(C4CC4)CC3)cc2)cc1 [Example 233]
high bin

Place this compound in its band: CCc1ccccc1-c1noc(CCCOc2ccc(S(=O)(=O)C3(C(=O)NO)CCN(CCOC)CC3)cc2)n1 [Example 155]
high bin

Textbook exercise: identify the category of the compound given here, O=C(CCCOc1ccc(S(=O)(=O)C2(C(=O)NO)CCOCC2)cc1)Nc1ccc(OC(F)(F)F)cc1 [Example 228] , according to its measured value.
high bin

Pick a category. Item: CC(C)c1ccc(-c2cccc(CCOc3ccc(S(=O)(=O)C4(C(=O)NO)CCOCC4)cc3)c2)cc1 [Example 109]
low bin
